# run description: In vivo pharmacokinetic experiment in CD-1 mice
# condition: mouse, plasma; CD-1 female mice, oral administration (10 mg/kg)
Each record here notes measured Cmax.
Your answer should be a plain number; it is taken to be in ng/mL.

Solved entries:
What does the data say about its Cmax? Entry: COc1cc(C(=O)NC2CCN(C)CC2)c(F)cc1Nc1ncc(Cl)c(Oc2cccc3c2C(=O)N(C)C32CC2)n1 [Compound 117]
822

Which Cmax value is on record for COc1cc(N2CC3(CCN(C)CC3)C2)c(F)cc1Nc1ncc(C(F)(F)F)c(Oc2cccc3c2C(=O)N(C)C32CC2)n1 [Compound 120] ?
522

Suppose we examine the compound COc1cc(N2CC3(CCN(C)CC3)C2)ccc1Nc1ncc(Cl)c(Oc2cccc3c2C(=O)N(C)C32CC2)n1 [Compound 136] ; what Cmax value has been reported?
907

API: the following record is the query input.
Recorded Cmax of COc1cc(C(=O)NC2CCN(C)CC2)ccc1Nc1ncc(C(F)(F)F)c(Oc2cccc3c2C(=O)N(C)C32CC2)n1 [Compound 3] , please.
57.2
